Tested on: Pseudomonas aeruginosa E-2
Assay Overview: Minimum inhibitory concentration (MIC)
Format: cell-based
Experimental Context: E2; Pseudomonas aeruginosa E-2, Gram -
Protocol: The compounds of the present invention (A, C, E, F, G, H and I) and ofloxacin as control were dissolved in 0.1N aqueous potassium hydroxide to prepare a solution of 5000 μg/ml in concentration. The compounds of the present invention (B, D and J) were dissolved in sterilized distilled water to prepare a solution of 5000 μg/ml in concentration. Each solution was diluted with sterilized distilled water to prepare a standard solution with a concentration of each test compound: 1000 μg/ml. […]
Observation Type: MIC (µg/mL)
Answer format: numeric, µg/mL implied, no suffix.

Examples with their reported MIC follow.
1) O=C(O)c1c(=O)c2cc(F)c(N3CCC(O)C3)c3c2n2c(csc12)CO3 (centres unmarked) ... 0.39
2) CC1CN(c2c(F)cc3c(=O)c(C(=O)O)c4scc5n4c3c2OC5)CCN1 (centres unmarked) [Compound (E)] ... 0.78
3) O=C(O)c1c(=O)c2cc(F)c(N3CCCC3)c3c2n2c(csc12)CO3 ... 1.56
4) NC1CCN(c2c(F)cc3c(=O)c(C(=O)O)c4scc5n4c3c2OC5)C1 (centres unmarked) ... 0.78

Would you kindly look at the next entry?
Ask: Look up and state reported MIC for CN1CCN(c2c(F)cc3c(=O)c(C(=O)O)c4scc5n4c3c2OC5)CC1
Reply: 0.78
